Data origin, for the record: PubChem BioAssay AID2060886

# System: 653999-131-R-J2-PDC complex spheroids, growth inhibition
# experiment notes: Anticancer human tumor 653999-131-R-J2-PDC patient-derived lung adenocarcinoma cell line growth inhibition [RAS]
# conditions used: second compound 0.0316 µM; first compound 3.16 µM; stronger effect = lower value
Decision: viability, T/C beneath 70% gives criterion met; viability, T/C meeting or exceeding 70% gives criterion not met.

compound="Cc1nc(N2CCC3(CC2)COC(C)C3N)c(CO)nc1Sc1ccnc(N)c1Cl (stereo not given) + C#Cc1c(F)ccc2cc(O)cc(-c3ncc4c(N5CC6CCC(C5)N6)nc(OCC56CCCN5CC(F)C6)nc4c3F)c12" discrete_label="criterion not met"
compound="CC(=O)OC12COC1CC(O)C1(C)C(=O)C(O)C3=C(C)C(OC(=O)C(O)C(NC(=O)OC(C)(C)C)c4ccccc4)CC(O)(C(OC(=O)c4ccccc4)C21)C3(C)C (stereo not given) + C=CC(=O)N1CCN(c2nc(OCC3CCCN3C)nc3c(F)c(-c4nc(N)cc(C)c4C(F)(F)F)c(Cl)cc23)C(C)C1" discrete_label="criterion not met"
compound="CC(C)NCC(C(=O)N1CCN(c2ncnc3c2C(C)CC3O)CC1)c1ccc(Cl)cc1 (stereo not given) + C#Cc1c(F)ccc2cc(O)cc(-c3ncc4c(N5CC6CCC(C5)N6)nc(OCC56CCCN5CC(F)C6)nc4c3F)c12" discrete_label="criterion met"
compound="C[C@@H](NC(=O)c1ncnc(N)c1Cl)c1ncc(C(=O)Nc2cc(C(F)(F)F)c(Cl)cn2)s1 + C#Cc1c(F)ccc2cc(O)cc(-c3ncc4c(N5CC6CCC(C5)N6)nc(OCC56CCCN5CC(F)C6)nc4c3F)c12" discrete_label="criterion not met"
compound="CCC(CC)c1cc(NC2CCC(N)C2)n2nccc2n1 (stereo not given) + C#Cc1c(F)ccc2cc(O)cc(-c3ncc4c(N5CC6CCC(C5)N6)nc(OCC56CCCN5CC(F)C6)nc4c3F)c12" discrete_label="criterion met"
compound="Cc1nc(N2CCC3(CC2)COC(C)C3N)c(CO)nc1Sc1ccnc(N)c1Cl (stereo not given) + C=CC(=O)N1CCN(c2nc(OCC3CCCN3C)nc3c(F)c(-c4nc(N)cc(C)c4C(F)(F)F)c(Cl)cc23)C(C)C1" discrete_label="criterion not met"
compound="CC(C)NCC(C(=O)N1CCN(c2ncnc3c2C(C)CC3O)CC1)c1ccc(Cl)cc1 (stereo not given) + C=CC(=O)N1CCN(c2nc(OCC3CCCN3C)nc3c(F)c(-c4nc(N)cc(C)c4C(F)(F)F)c(Cl)cc23)C(C)C1" discrete_label="criterion met"
compound="CC(Nc1ccc2c(c1)OCCn1cc(N3C(=O)OCC3C(F)F)nc1-2)C(N)=O (stereo not given) + C#Cc1c(F)ccc2cc(O)cc(-c3ncc4c(N5CC6CCC(C5)N6)nc(OCC56CCCN5CC(F)C6)nc4c3F)c12" discrete_label="criterion met"
compound="C[C@@H](NC(=O)c1ncnc(N)c1Cl)c1ncc(C(=O)Nc2cc(C(F)(F)F)c(Cl)cn2)s1 + C=CC(=O)N1CCN(c2nc(OCC3CCCN3C)nc3c(F)c(-c4nc(N)cc(C)c4C(F)(F)F)c(Cl)cc23)C(C)C1" discrete_label="criterion not met"

---

Item-by-item account of viability, T/C
# Tested on: 653999-131-R-J2-PDC complex spheroids, growth inhibition
# experiment notes: Anticancer human tumor 653999-131-R-J2-PDC cell line growth inhibition [RAS];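 also: spheroids exposed to the agents for seven days before the readout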
# conditions used: second compound 0.1 µM; first compound 0.0316 µM; stronger effect = lower value
readout name: viability, T/C (%)

compound="CC1(O)CCCC1n1c(=O)c(C(F)F)cc2cnc(NC3CCN(S(C)(=O)=O)CC3)nc21 (stereo not given) + C=CC(=O)N1CCN(c2nc(OCC3CCCN3C)nc3c(F)c(-c4nc(N)cc(C)c4C(F)(F)F)c(Cl)cc23)C(C)C1" measured_number=78.4
compound="CC(=O)OC12COC1CC(O)C1(C)C(=O)C(O)C3=C(C)C(OC(=O)C(O)C(NC(=O)OC(C)(C)C)c4ccccc4)CC(O)(C(OC(=O)c4ccccc4)C21)C3(C)C (stereo not given) + C#Cc1c(F)ccc2cc(O)cc(-c3ncc4c(N5CC6CCC(C5)N6)nc(OCC56CCCN5CC(F)C6)nc4c3F)c12" measured_number=50
compound="CCC(CC)c1cc(NC2CCC(N)C2)n2nccc2n1 (stereo not given) + C#Cc1c(F)ccc2cc(O)cc(-c3ncc4c(N5CC6CCC(C5)N6)nc(OCC56CCCN5CC(F)C6)nc4c3F)c12" measured_number=85.2
compound="CCC(CC)c1cc(NC2CCC(N)C2)n2nccc2n1 (stereo not given) + C=CC(=O)N1CCN(c2nc(OCC3CCCN3C)nc3c(F)c(-c4nc(N)cc(C)c4C(F)(F)F)c(Cl)cc23)C(C)C1" measured_number=99.9
compound="O=C(c1ccc(F)c(F)c1Nc1ccc(I)cc1F)N1CC(O)([C@@H]2CCCCN2)C1 + C=CC(=O)N1CCN(c2nc(OCC3CCCN3C)nc3c(F)c(-c4nc(N)cc(C)c4C(F)(F)F)c(Cl)cc23)C(C)C1" measured_number=60.6
